Recorded protein stability index values for a group of sequences are listed next.
Test system: Saccharomyces cerevisiae
Test: protein stability index of tFT-peptide fusion (C-terminal peptide) (PSI (0-1 scale)); higher = more stable (slower turnover);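 note: PSI is a weighted mean of sequencing reads over stability bins, variants kept only with over 10 reads, mCherry proximal and sfGFP distal, peptide attached via GGGS linker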
Conditions: genetic background: wild type; temperature: 30 C

>  <CONSTRUCT_SEQUENCE>
PCLSLSFPPLPH

>  <protein stability index>
0.736

$$$$
>  <CONSTRUCT_SEQUENCE>
LRSIQVHLGSTA

>  <protein stability index>
0.699

$$$$
>  <CONSTRUCT_SEQUENCE>
PYVAFMLPSPWQ

>  <protein stability index>
0.672

$$$$
>  <CONSTRUCT_SEQUENCE>
FNHYPSPPQRFY

>  <protein stability index>
0.685

$$$$
>  <CONSTRUCT_SEQUENCE>
LLSPFLLMLLFL

>  <protein stability index>
0.28

$$$$
>  <CONSTRUCT_SEQUENCE>
SFLPHALPATAS

>  <protein stability index>
0.682

$$$$
>  <CONSTRUCT_SEQUENCE>
KKTDKSNKVKRI

>  <protein stability index>
0.669

$$$$
>  <CONSTRUCT_SEQUENCE>
QQRHITHRKIRI

>  <protein stability index>
0.659

$$$$
>  <CONSTRUCT_SEQUENCE>
PSAPTNPHARLA

>  <protein stability index>
0.689

$$$$
>  <CONSTRUCT_SEQUENCE>
VVGAVSASLAGV

>  <protein stability index>
0.662

$$$$
>  <CONSTRUCT_SEQUENCE>
VCVWVDILAFCS

>  <protein stability index>
0.227

$$$$
>  <CONSTRUCT_SEQUENCE>
LYSGIAVSATSL

>  <protein stability index>
0.734

$$$$
>  <CONSTRUCT_SEQUENCE>
HTRPTALLPLSR

>  <protein stability index>
0.701

$$$$
>  <CONSTRUCT_SEQUENCE>
IWGLSGGKKLLW

>  <protein stability index>
0.718

$$$$

* * *

Test system: Saccharomyces cerevisiae
Experiment: protein stability index of tFT-peptide fusion (C-terminal peptide) (PSI (0-1 scale)); higher = more stable (slower turnover)
Details: genetic background: wild type; temperature: 30 C

>  <CONSTRUCT_SEQUENCE>
VSLSSLPRRFSP

>  <TESTED_SYSTEM>
Saccharomyces cerevisiae

>  <protein stability index>
0.75

$$$$
>  <CONSTRUCT_SEQUENCE>
GANLVTGKLTDG

>  <TESTED_SYSTEM>
Saccharomyces cerevisiae

>  <protein stability index>
0.693

$$$$
>  <CONSTRUCT_SEQUENCE>
GRGKKRKERAER

>  <TESTED_SYSTEM>
Saccharomyces cerevisiae

>  <protein stability index>
0.649

$$$$
>  <CONSTRUCT_SEQUENCE>
PPDALTHPTPPQ

>  <TESTED_SYSTEM>
Saccharomyces cerevisiae

>  <protein stability index>
0.703

$$$$

* * *

Tested on: Saccharomyces cerevisiae
Assay: protein stability index of tFT-peptide fusion (C-terminal peptide) (PSI (0-1 scale)); higher = more stable (slower turnover)
Details: genetic background: das1 deletion; temperature: 30 C
Recorded protein stability index values for a group of sequences are listed next.

>  <CONSTRUCT_SEQUENCE>
GLLLRLRNLFCM

>  <protein stability index>
0.748

$$$$
>  <CONSTRUCT_SEQUENCE>
EKTKTKRERKIN

>  <protein stability index>
0.626

$$$$
>  <CONSTRUCT_SEQUENCE>
GVGHAWHYFCVC

>  <protein stability index>
0.608

$$$$
>  <CONSTRUCT_SEQUENCE>
CFVISVLFFFVG

>  <protein stability index>
0.288

$$$$
>  <CONSTRUCT_SEQUENCE>
FKWVSRIRLLDA

>  <protein stability index>
0.51

$$$$
>  <CONSTRUCT_SEQUENCE>
GGRREWCRGGGV

>  <protein stability index>
0.555

$$$$
>  <CONSTRUCT_SEQUENCE>
AMRTIFFPAFVS

>  <protein stability index>
0.655

$$$$
>  <CONSTRUCT_SEQUENCE>
CFVLVVCIPVMV

>  <protein stability index>
0.198

$$$$
>  <CONSTRUCT_SEQUENCE>
AFRFLAVCVGCG

>  <protein stability index>
0.218

$$$$
>  <CONSTRUCT_SEQUENCE>
FLYSVLLICKFI

>  <protein stability index>
0.224

$$$$
>  <CONSTRUCT_SEQUENCE>
NMVSMVVVIFGV

>  <protein stability index>
0.23

$$$$
>  <CONSTRUCT_SEQUENCE>
SFLCILIFPFFP

>  <protein stability index>
0.411

$$$$
>  <CONSTRUCT_SEQUENCE>
FSQGFRSPSECL

>  <protein stability index>
0.63

$$$$
>  <CONSTRUCT_SEQUENCE>
LYRIETLFMRAQ

>  <protein stability index>
0.435

$$$$
>  <CONSTRUCT_SEQUENCE>
GAVRRWGGVSFV

>  <protein stability index>
0.643

$$$$
>  <CONSTRUCT_SEQUENCE>
FCFVRGLLFLFF

>  <protein stability index>
0.383

$$$$
>  <CONSTRUCT_SEQUENCE>
SRPLYVMICTRV

>  <protein stability index>
0.327

$$$$
>  <CONSTRUCT_SEQUENCE>
NCVDRFKGQKRM

>  <protein stability index>
0.64

$$$$
>  <CONSTRUCT_SEQUENCE>
VRTFAVSCLCVC

>  <protein stability index>
0.19

$$$$
>  <CONSTRUCT_SEQUENCE>
VWWWGAVGWLMV

>  <protein stability index>
0.528

$$$$
>  <CONSTRUCT_SEQUENCE>
KFWVVLIEIKYH

>  <protein stability index>
0.159

$$$$
>  <CONSTRUCT_SEQUENCE>
LLVRYYLFYVLV

>  <protein stability index>
0.316

$$$$
>  <CONSTRUCT_SEQUENCE>
CMAWLSVLKTLF

>  <protein stability index>
0.63

$$$$
>  <CONSTRUCT_SEQUENCE>
MLIAISASAARF

>  <protein stability index>
0.417

$$$$
>  <CONSTRUCT_SEQUENCE>
GVSLRVFVVSVC

>  <protein stability index>
0.219

$$$$
>  <CONSTRUCT_SEQUENCE>
EGGGGRFWVCVG

>  <protein stability index>
0.631

$$$$
>  <CONSTRUCT_SEQUENCE>
KKNLTHSIRVQA

>  <protein stability index>
0.567

$$$$
>  <CONSTRUCT_SEQUENCE>
CFVQVGGLVKIS

>  <protein stability index>
0.61

$$$$
>  <CONSTRUCT_SEQUENCE>
WNIVKHREDMLS

>  <protein stability index>
0.638

$$$$
>  <CONSTRUCT_SEQUENCE>
VARWVYALGLLC

>  <protein stability index>
0.545

$$$$
>  <CONSTRUCT_SEQUENCE>
SVFWCFHVLFWS

>  <protein stability index>
0.395

$$$$
>  <CONSTRUCT_SEQUENCE>
YWFWLLIGSFSC

>  <protein stability index>
0.382

$$$$
